# Test system: human prostate PC3-mm2 tumor cell line
# protocolDetails: In vitro cell culture growth assay (MTS), PC3-mm2
# Assay type: cell-based
# assaySetup: Homo sapiens, PC3MM2, 72 h, MTS cell growth assay, three days after drug treatment; read-out: IC50 PC3-mm2
Counter-ions that a name gives are not always drawn.
The following compounds are shown together with reported IC50 values.
Return type: number; implicit unit nM.

// worked examples, IC50 included
O=C(Nc1ccccc1)Nc1ccc(-c2nc(N3CCOCC3)nc(N3CCOCC3)n2)cc1 [Example 3] ... 43
O=C(Nc1ccncc1)Nc1ccc(-c2nc(N3CCC3)nc(N3CCOCC3)n2)cc1 [Example 140] ... 279
CC(O)c1cccc(NC(=O)Nc2ccc(-c3nc(N4CCOCC4)nc(N4CCOCC4)n3)cc2)c1 (stereo not drawn) [Example 57] ... 187
COC(=O)c1ccc(NC(=O)Nc2ccc(-c3nc(OC(C)C)nc(N4CCOCC4)n3)cc2)cc1 [Example 95] ... 364
O=C(Nc1ccc(-c2nc(N3CCOCC3)nc(N3CCOCC3)n2)cc1)Nc1cccnc1 [Example 2] ... 43

Q. Look up IC50 for this compound: CN1CCN(C(=O)c2ccc(NC(=O)Nc3ccc(-c4nc(N5CCC5)nc(N5CCOCC5)n4)cc3)cc2)CC1 [Example 196]
A. 82

Q. Let us now turn to CC(C)c1nc(-c2ccc(NC(=O)Nc3ccc(C(=O)NC4CCC4)cc3)cc2)nc(N2CCOCC2)n1 [Example 311]
A. 366

Q. Let us now turn to Cc1ccc(-c2nc(-c3ccc(NC(=O)Nc4ccc(C(=O)N(C)CCN(C)C)cc4)cc3)nc(N3CCOCC3)n2)cc1 [Example 338]
A. 266

Q. Let us now turn to CCN(CC)C(=O)[n+]1ccc(NC(=O)Nc2ccc(-c3nc(N4CCOCC4)nc(N4C5CCC4COC5)n3)cc2)cc1 [Example 201]
A. 44

Q. Let us now turn to CCCCc1nc(-c2ccc(NC(=O)Nc3ccc(CO)cc3)cc2)nc(N2CCOCC2)n1 [Example 239]
A. 317

Q. Let us now turn to CN1CCN(C(=O)c2ccc(NC(=O)Nc3ccc(-c4nc(N5CCOCC5)nc(N5CCOCC5)n4)cc3)cc2)CC1 [Example 69, hydrochloride]
A. 13

Q. Let us now turn to CN(C)C1CCN(c2ccc(NC(=O)Nc3ccc(-c4nc(-c5ccccc5)nc(N5CCOCC5)n4)cc3)cc2)CC1 [Example 345]
A. 395

Q. Let us now turn to O=C(Nc1ccc(CCO)cc1)Nc1ccc(-c2nc(N3CCOCC3)nc(N3C4CCC3COC4)n2)cc1 [Example 39]
A. 30

Q. Let us now turn to Cc1cc(NC(=O)Nc2ccc(-c3nc(N4CCOCC4)nc(N4CCC5(CC4)OCCO5)n3)cc2)ccn1 [Example 135]
A. 509

* * *

# testTarget: PI3K-α (Homo sapiens)
# protocolDetails: PI3K-alpha fluorescence polarization assay
# assaySetup: read-out: IC50 PI3Kα; listed as 531
measuredEndpoint: IC50 (nM)
Return type: number; implicit unit nM.

Q. Tell me reported IC50 for Cc1ccc(-c2nc(-c3ccc(NC(=O)Nc4ccc(N5CCC(N(C)C)CC5)cc4)cc3)nc(N3CCOCC3)n2)cc1 , tested with PI3K-α (Homo sapiens).
A. 71.5

* * *

The following compounds are shown together with reported IC50 values.
# testTarget: PI3K-α (Homo sapiens, UniProt P42336)
# Sequence (P42336 whole entry, species assumed): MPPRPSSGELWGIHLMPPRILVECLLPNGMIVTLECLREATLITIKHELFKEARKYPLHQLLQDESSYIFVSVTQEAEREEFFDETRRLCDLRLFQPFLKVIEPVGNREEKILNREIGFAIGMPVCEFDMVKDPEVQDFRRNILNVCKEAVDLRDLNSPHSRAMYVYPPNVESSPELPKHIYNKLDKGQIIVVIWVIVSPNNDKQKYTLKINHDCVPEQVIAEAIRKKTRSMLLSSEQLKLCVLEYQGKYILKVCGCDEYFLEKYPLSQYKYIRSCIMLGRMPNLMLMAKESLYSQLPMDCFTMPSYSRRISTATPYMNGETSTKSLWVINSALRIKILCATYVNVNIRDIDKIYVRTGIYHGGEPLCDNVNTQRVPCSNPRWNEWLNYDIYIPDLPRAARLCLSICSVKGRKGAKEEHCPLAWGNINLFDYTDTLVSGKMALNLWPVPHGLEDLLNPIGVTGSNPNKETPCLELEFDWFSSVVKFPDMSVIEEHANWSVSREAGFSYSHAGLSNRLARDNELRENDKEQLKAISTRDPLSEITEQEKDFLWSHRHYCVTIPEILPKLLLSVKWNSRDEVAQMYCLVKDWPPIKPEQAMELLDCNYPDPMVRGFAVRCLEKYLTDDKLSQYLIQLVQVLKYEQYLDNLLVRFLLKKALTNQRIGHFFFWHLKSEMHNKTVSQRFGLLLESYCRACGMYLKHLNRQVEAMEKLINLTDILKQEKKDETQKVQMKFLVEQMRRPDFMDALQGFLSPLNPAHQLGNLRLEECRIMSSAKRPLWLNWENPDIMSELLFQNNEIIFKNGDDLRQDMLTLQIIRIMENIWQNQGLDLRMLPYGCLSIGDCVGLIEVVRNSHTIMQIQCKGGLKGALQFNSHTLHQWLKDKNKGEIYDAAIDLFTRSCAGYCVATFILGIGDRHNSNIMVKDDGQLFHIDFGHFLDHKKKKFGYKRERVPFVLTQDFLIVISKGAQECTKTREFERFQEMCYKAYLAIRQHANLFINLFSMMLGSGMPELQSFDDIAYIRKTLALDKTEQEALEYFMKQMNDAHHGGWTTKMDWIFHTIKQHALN
# Sequence (P27986 whole entry partner, species assumed): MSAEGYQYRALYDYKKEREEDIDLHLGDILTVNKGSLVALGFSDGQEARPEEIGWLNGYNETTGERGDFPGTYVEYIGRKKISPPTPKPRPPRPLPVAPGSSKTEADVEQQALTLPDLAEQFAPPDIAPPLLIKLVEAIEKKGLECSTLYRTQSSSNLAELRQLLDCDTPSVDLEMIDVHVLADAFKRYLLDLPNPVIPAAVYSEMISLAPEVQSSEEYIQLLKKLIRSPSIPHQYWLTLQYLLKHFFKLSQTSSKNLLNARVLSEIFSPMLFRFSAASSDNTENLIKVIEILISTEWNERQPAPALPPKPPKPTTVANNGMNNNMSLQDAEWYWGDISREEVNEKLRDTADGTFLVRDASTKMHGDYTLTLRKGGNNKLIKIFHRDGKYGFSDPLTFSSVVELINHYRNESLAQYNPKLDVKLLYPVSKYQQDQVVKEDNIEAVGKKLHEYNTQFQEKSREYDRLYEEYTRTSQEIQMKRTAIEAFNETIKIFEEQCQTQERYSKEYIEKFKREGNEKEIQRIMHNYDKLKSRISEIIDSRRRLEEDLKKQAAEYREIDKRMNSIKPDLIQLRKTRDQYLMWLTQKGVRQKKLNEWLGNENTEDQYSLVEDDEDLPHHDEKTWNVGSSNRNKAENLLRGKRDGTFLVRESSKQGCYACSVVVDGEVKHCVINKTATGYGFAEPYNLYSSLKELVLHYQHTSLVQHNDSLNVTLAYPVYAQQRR
# protocolDetails: PI3K-alpha fluorescence polarization assay
# assaySetup: read-out: IC50 PI3Kα
Return type: number; implicit unit nM.

Q. Tell me reported IC50 for O=C(Nc1ccc(CCO)cc1)Nc1ccc(-c2nc(N3CCOCC3)nc(N3CCOCC3)n2)cc1 , tested with PI3K-α (Homo sapiens, UniProt P42336).
A. 1

Q. Let us now turn to CN1CCN(c2nc(-c3ccc(NC(=O)Nc4cccnc4)cc3)nc(N3CC4CCC(C3)O4)n2)C1
A. 300

Q. Let us now turn to CN(C)c1nc(-c2ccc(NC(=O)Nc3cccnc3)cc2)nc(N2CC3CCC(C2)O3)n1
A. 1120

Q. Let us now turn to NS(=O)(=O)N1CCC(Oc2nc(-c3ccc(NC(=O)Nc4ccncc4)cc3)nc(N3CCOCC3)n2)CC1
A. 3.2

* * *

# testTarget: PI3K-α (Homo sapiens, UniProt P42336)
# protocolDetails: PI3K-alpha fluorescence polarization assay
# assaySetup: read-out: IC50 PI3Kα
The following compounds are shown together with reported IC50 values.
Return type: number; implicit unit nM.

// worked examples, IC50 included
COC(=O)c1ccc(NC(=O)Nc2ccc(-c3nc(N4CCOCC4)nc(N4CCC(NC(C)=O)CC4)n3)cc2)cc1 [Example 656] ... 73
COC(=O)c1ccc(NC(=O)Nc2ccc(-c3nc(N4CCOCC4)nc(N4CCOC[C@@H]4C)n3)cc2)cc1 [Example 615] ... 26.5
O=C(NCCF)Nc1ccc(-c2nc(Nc3ccc(N4CCNCC4)cc3)nc(N3CC4CCC(C3)O4)n2)cc1 [Example 327] ... 394

Here is the next item to consider.
Q. Look up IC50 for this compound: CN1CCN(Nc2nc(-c3ccc(NC(=O)Nc4ccccc4)cc3)nc(N3CCOCC3)n2)CC1 [Example 686]
A. 77

* * *

# testTarget: PI3K-α (Homo sapiens, UniProt P42336)
# protocolDetails: PI3K-alpha fluorescence polarization assay
# assaySetup: read-out: IC50 PI3Kα
measuredEndpoint: pIC50
Interpret pIC50 as the negative base-10 log of the concentration measured in mol/L.

C[C@@H]1COCCN1c1nc(-c2ccc(NC(=O)Nc3ccc(C(=O)NCCN(C)C)cc3)cc2)nc(N2CCOC[C@@H]2C)n1 ... 8.22
Cc1ccc(-c2nc(-c3ccc(NC(=O)Nc4ccc(N5CCC(N(C)C)CC5)cc4)cc3)nc(N3CCOCC3)n2)cc1 ... 7.15
CN1CCCN(C(=O)Nc2ccc(NC(=O)Nc3ccc(-c4nc(N5CCOCC5)nc(N5CCOCC5)n4)cc3)cc2)CC1 ... 9.30
O=C(Nc1ccncc1)Nc1ccc(-c2nc(NS(=O)(=O)c3ccccc3)nc(N3CCOCC3)n2)cc1 ... 6.87
CC(C)N1CCN(C(=O)c2ccc(NC(=O)Nc3ccc(-c4nc(O[C@H]5CCOC5)nc(N5CCOCC5)n4)cc3)cc2)CC1 ... 8.85

Q. Look up pIC50 for this molecule: O=C(Nc1ccccc1)Nc1ccc(-c2nc(N3CCOCC3)nc(N3C4CCC3CC(O)C4)n2)cc1 (stereo not shown)
A. 8.15

Q. Let us now turn to COC(=O)c1cccc(NC(=O)Nc2ccc(-c3nc(-c4cccs4)nc(N4CCOCC4)n3)cc2)c1
A. 6.29

* * *

# testTarget: UniProt P42336
# protocolDetails: PI3K-alpha fluorescence polarization assay
# assaySetup: read-out: IC50 PI3Kα
Label YES when IC50 < 20 nM; otherwise NO.

CCS(=O)(=O)N1CCN(c2nc(-c3ccc(NC(=O)Nc4ccc(C(=O)NCCN(C)C)cc4)cc3)nc(N3CCOCC3)n2)CC1 ... YES

Q. Does the reported IC50 of C[C@@H]1COCCN1c1nc(-c2ccc(NC(=O)Nc3ccc(C(=O)N4CCN(C)CC4)cc3)cc2)nc(N2CCOC[C@H]2C)n1 stay below 20 nM?
A. NO

Q. Let us now turn to O=C(Nc1ccc(C(=O)O)cc1)Nc1ccc(-c2nc(-c3cccs3)nc(N3CCOCC3)n2)cc1
A. YES

Q. Let us now turn to O=C(O)CNC1CCN(c2nc(-c3ccc(NC(=O)Nc4ccncc4)cc3)nc(N3CC4CCC(C3)O4)n2)CC1
A. NO

Q. Let us now turn to CC(C)(C)OC(=O)N1CC(Nc2nc(-c3ccc(NC(=O)Nc4ccncc4)cc3)nc(N3CCOCC3)n2)C1
A. NO

Q. Let us now turn to O=C(Nc1ccncc1)Nc1ccc(-c2nc(-c3cnc4ccccc4c3)nc(N3CCOCC3)n2)cc1
A. YES

Q. Let us now turn to CN(C)C(=O)N1CCN(c2nc(-c3ccc(NC(=O)Nc4ccc(C(=O)O)cc4)cc3)nc(N3CCOCC3)n2)CC1
A. NO

* * *

The following molecules are shown together with reported IC50 values.
# testTarget: PI3K-α (Homo sapiens, UniProt P42336)
# protocolDetails: PI3K-alpha fluorescence polarization assay
# assaySetup: read-out: IC50 PI3Kα
Return type: number; implicit unit nM.

Q. Tell me reported IC50 for O=C(Nc1ccncc1)Nc1ccc(-c2nc(N3CCN(Cc4ccccc4)CC3)nc(N3CC4CCC(C3)O4)n2)cc1 [Example 109] , tested with PI3K-α (Homo sapiens, UniProt P42336).
A. 1460

Q. Let us now turn to NC(=O)CNC1CCN(c2nc(-c3ccc(NC(=O)Nc4ccncc4)cc3)nc(N3CC4CCC(C3)O4)n2)CC1 [Example 126]
A. 510
